target_desc: rat MASP-2 (in rat serum) (rat, UniProt Q9JJS8 20-685)
Sequence (Q9JJS8 20-685 limits assumed): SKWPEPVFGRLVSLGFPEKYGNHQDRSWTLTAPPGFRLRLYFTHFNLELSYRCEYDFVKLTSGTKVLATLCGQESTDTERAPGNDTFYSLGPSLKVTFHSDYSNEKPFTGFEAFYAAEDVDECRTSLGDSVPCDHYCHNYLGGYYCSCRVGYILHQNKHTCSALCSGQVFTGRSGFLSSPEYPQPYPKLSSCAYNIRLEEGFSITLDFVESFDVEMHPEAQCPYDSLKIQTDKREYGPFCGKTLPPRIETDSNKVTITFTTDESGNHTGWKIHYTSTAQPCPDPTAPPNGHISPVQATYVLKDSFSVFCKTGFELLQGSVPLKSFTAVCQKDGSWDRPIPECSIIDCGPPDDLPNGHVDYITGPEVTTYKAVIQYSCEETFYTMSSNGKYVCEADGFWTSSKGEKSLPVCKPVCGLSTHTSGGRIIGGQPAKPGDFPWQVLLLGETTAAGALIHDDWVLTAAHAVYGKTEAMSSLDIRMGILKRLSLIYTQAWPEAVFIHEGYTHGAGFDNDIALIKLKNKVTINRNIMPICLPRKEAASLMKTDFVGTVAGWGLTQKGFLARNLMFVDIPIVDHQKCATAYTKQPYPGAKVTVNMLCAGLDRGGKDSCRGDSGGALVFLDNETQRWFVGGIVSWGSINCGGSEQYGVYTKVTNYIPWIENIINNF
assay_info: cell-based or functional assay
Where no end group is shown, it is not given here.
Reported Relative potency, lectin pathway, rat serum values follow for various binders
experimental_endpoint: Relative potency, lectin pathway, rat serum

{"binder": "EVO213 (designed binder, Modified TFPI-D2 Kunitz domain; made as m1) KPDFCFLENDPGPCRAAKRRYFYNNQTKQCERFGYGGCLGNMNNFVTLEECKNICEDG", "reported_measurement": "1.2 fold vs EVO2"}
{"binder": "EVO221 (designed binder, not fully specified; cysteine pairing not given here, Modified TFPI-D2 Kunitz domain; made as m1) KPDFCFLENDPGVCRAAAVRYFYNNQTKQCERFYYGGCLGNMNNFVTLEECKNICEDG", "reported_measurement": "9.7 fold vs EVO2"}
{"binder": "EVO2c (designed binder, not fully specified; cysteine pairing not given here, Modified TFPI-D2 Kunitz domain; made as m1) KPDFCFLEEDPGPCRAVKRRYFYNNQTKQCERFYYGGCLGNMNNFETLEECKNICEDG", "reported_measurement": "3.1 fold vs EVO2"}
{"binder": "EVO21d (designed binder, not fully specified; cysteine pairing not given here) KPDFCFLEEDPGPCRALKRRYFYNNQTKQCERFSYGGCFGNMNNFVTLEECKNICEDG", "reported_measurement": "4.1 fold vs EVO2"}
{"binder": "EVO214 (designed binder, not fully specified; ends and bridges not checked, Modified TFPI-D2 Kunitz domain; made as m1) KPDFCFLENDPGPCRALKLRYFYNNQTKQCERFGYGGCLGNMNNFVTLEECKNICEDG", "reported_measurement": "9.5 fold vs EVO2"}
